Just for reference, patent US20190256509A1 is where these values come from.

targetEntity: KDM5B enzyme (Homo sapiens)
Sequence (Q9UGL1 whole entry): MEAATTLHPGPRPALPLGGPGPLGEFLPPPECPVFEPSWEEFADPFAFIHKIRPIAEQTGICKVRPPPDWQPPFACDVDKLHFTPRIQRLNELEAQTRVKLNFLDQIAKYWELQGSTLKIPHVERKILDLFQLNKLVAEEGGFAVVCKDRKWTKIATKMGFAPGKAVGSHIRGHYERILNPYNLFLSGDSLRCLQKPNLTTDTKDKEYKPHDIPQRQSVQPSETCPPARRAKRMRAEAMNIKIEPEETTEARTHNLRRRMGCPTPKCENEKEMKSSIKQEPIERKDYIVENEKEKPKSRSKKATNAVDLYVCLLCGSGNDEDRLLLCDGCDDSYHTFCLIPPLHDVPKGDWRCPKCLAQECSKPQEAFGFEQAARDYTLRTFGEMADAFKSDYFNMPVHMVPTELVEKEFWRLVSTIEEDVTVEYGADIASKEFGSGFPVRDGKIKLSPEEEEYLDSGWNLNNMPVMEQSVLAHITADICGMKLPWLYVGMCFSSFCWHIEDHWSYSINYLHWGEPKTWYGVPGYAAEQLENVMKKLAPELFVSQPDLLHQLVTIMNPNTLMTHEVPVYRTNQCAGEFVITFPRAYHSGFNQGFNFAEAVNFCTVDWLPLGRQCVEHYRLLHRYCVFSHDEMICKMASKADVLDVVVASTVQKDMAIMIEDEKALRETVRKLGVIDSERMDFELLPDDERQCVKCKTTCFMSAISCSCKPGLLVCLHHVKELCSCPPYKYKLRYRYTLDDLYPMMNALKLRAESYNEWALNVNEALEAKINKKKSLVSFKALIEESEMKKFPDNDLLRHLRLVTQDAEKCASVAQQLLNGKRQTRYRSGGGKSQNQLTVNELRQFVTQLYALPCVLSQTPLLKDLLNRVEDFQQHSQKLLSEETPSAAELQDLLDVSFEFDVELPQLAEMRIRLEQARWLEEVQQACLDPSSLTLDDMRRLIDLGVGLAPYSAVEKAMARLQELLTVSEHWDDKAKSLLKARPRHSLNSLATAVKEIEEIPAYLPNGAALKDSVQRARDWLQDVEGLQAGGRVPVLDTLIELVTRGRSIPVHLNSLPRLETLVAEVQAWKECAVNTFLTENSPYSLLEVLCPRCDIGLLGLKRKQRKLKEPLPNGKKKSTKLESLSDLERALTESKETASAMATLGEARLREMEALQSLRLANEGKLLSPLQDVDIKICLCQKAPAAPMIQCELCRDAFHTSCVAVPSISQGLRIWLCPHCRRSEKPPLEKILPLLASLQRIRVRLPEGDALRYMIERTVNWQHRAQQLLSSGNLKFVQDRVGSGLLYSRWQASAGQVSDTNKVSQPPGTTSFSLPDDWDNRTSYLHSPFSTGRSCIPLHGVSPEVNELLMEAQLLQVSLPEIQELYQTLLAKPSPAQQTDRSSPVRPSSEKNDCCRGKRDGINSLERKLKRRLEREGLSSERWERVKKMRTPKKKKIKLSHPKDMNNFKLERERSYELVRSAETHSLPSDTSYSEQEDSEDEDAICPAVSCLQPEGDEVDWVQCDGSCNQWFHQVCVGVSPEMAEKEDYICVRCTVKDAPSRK
pIC50: −log10 of the molar value.
reportedMetric: pIC50

The cases that follow already have their pIC50 on record.
[[record]]
smilestext = "O=C(O)c1c(NCc2ccc(OC(F)F)cc2)ccc2nccn12"
targetentity = "KDM5B enzyme (Homo sapiens)"
recordedmeasurement = "< 6.00"

[[record]]
smilestext = "Cc1ccc(C(F)(F)F)c(CNc2ccc3nccn3c2C(=O)O)c1"
targetentity = "KDM5B enzyme (Homo sapiens)"
recordedmeasurement = "< 6.00"

[[record]]
smilestext = "O=C(O)c1c(NCc2ccc(OC(F)(F)F)cc2)ccc2nccn12"
targetentity = "KDM5B enzyme (Homo sapiens)"
recordedmeasurement = "< 6.00"

[[record]]
smilestext = "COc1cc(CN2CCC(NCCc3ccccc3)CC2)ccc1CNc1ccc2nccn2c1C(=O)O"
targetentity = "KDM5B enzyme (Homo sapiens)"
recordedmeasurement = "6.00 to 6.30"


Switching to the query record.
Request: So what does the record say about pIC50 for O=C(O)c1c(NCc2ccc3c(c2)OCCO3)ccc2nccn12 ?
Response: < 6.00
